Origin of the recorded values: the supplement of paper PMC4466140

Each entry below carries its reported SPOT peptide array binding signal intensity.
Target: ScNbp2
Assay: SPOT peptide array binding signal intensity (averaged, normalized) (arbitrary units (background-subtracted, floor 0; scale differs between SH3 domains)); higher = stronger binding of the SH3 domain to the peptide
reported-endpoint: SPOT peptide array binding signal intensity

>  <binder>
RRSKSLPITPKSIFN

>  <qualifier-symbol>
=

>  <value>
47

$$$$
>  <binder>
AAHKTKPSIPPKKVE

>  <qualifier-symbol>
≤

>  <value>
0

$$$$
>  <binder>
VPVAPPPPPASLGQS

>  <qualifier-symbol>
≤

>  <value>
0

$$$$
>  <binder>
KNPRRQLQIPRQQPS

>  <qualifier-symbol>
=

>  <value>
173

$$$$
>  <binder>
KFIPSRPAPKPPSSA

>  <qualifier-symbol>
=

>  <value>
8490

$$$$
>  <binder>
NMLKKKPLKKPLKRF

>  <qualifier-symbol>
=

>  <value>
552

$$$$
>  <binder>
SSTPTTPERPKRKSG

>  <qualifier-symbol>
≤

>  <value>
0

$$$$
>  <binder>
LKHGWKPLRPIKLIS

>  <qualifier-symbol>
=

>  <value>
550

$$$$
>  <binder>
RRSKSLPTTPGIRSG

>  <qualifier-symbol>
=

>  <value>
203

$$$$
>  <binder>
EQEEIAPSLPSRNSI

>  <qualifier-symbol>
=

>  <value>
2.5

$$$$
>  <binder>
MFLISPPASPPPEFD

>  <qualifier-symbol>
=

>  <value>
20

$$$$
>  <binder>
SAPDIPPRSPNRNAH

>  <qualifier-symbol>
=

>  <value>
57

$$$$
>  <binder>
DLFKPLPEPPTELGR

>  <qualifier-symbol>
≤

>  <value>
0

$$$$
>  <binder>
MSPLGAPPPPPHKDH

>  <qualifier-symbol>
≤

>  <value>
0

$$$$
>  <binder>
TIRRRAPLSLLESHT

>  <qualifier-symbol>
=

>  <value>
1320

$$$$
>  <binder>
PLRRTVMSLPGNHDI

>  <qualifier-symbol>
=

>  <value>
584

$$$$
>  <binder>
WRPRIVPILPYITRL

>  <qualifier-symbol>
=

>  <value>
224

$$$$
